These measurements were taken from patent US6348445B1.

# System: MDA-435 human breast carcinoma cells
# Format: cell-based
# measurement-setup: 24 h
Where no end group is shown, it is not given here.
quantity-measured: pIC50
Please report pIC50 as the negative decimal logarithm of the molar concentration, giving only the number.

Request: So what's the measured pIC50 for this one? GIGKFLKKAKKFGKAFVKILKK [MSI-78]
Result: 5.40

Request: So what's the measured pIC50 for this one? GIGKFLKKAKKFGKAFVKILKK [MSI-344]
Result: 5.10

---

# Test system: C. albicans
# Type: cell-based
Where a SMILES comes first, the peptide text is derived from it. [ ]: non-standard residue; d: D form. The star is where a group is joined. Octanoyl = CCCCCCCC(=O)*
quantity-measured: Minimal Inhibitory Concentration CA (µg/mL)
Response body: numeric value in µg/mL, unit text excluded.

Request: So what's the measured Minimal Inhibitory Concentration CA for this one? CCCCCCCC(=O)N[C@H](CC(C)C)C(=O)N[C@H](CCCCN)C(=O)N[C@H](CCCCN)C(=O)N[C@H](CC(C)C)C(=O)N[C@H](CC(C)C)C(=O)N[C@H](CCCCN)C(=O)N[C@H](CCCCN)C(=O)N[C@H](CC(C)C)C(=O)N[C@H](CCCCN)C(=O)N[C@H](CCCCN)C(=O)N[C@H](CC(C)C)C(N)=O [Oct-D-(SEQ ID NO: 110)-NH2] (Octanoyl-[dL][dK][dK][dL][dL][dK][dK][dL][dK][dK][dL]-NH2)
Result: 32

---

# Test system: K-562 human chronic myelogenous leukemia cells
# Type: cell-based
# measurement-setup: 24 h
Where no end group is shown, it is not given here.
For each entry below, report its IC50 value.
Response body: numeric value in µM, unit text excluded.

Request: So what's the measured IC50 for this one? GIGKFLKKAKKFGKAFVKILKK [MSI-344]
Result: 20

Request: So what's the measured IC50 for this one? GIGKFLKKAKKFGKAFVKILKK [MSI-78]
Result: 9

---

# test: pharmacokinetics, single intravenous dose, plasma bioassay (E. coli zone clearing)
# Format: in vivo, mice
# measurement-setup: male, CD-1, mouse, plasma, iv; 140 mg/kg i.v.; limit of detection approximately 150 ug/mL; read-out: plasma concentration at 60 min post-dose
quantity-measured: level at 1 h

Request: So what's the measured level at 1 h for this one? CCCCCCCC(=O)N[C@@H](CCCNCS(=O)(=O)O)C(=O)N[C@@H](CCCNCS(=O)(=O)O)C(=O)N[C@@H](CC(C)C)C(=O)N[C@@H](CC(C)C)C(=O)N[C@@H](CCCNCS(=O)(=O)O)C(=O)N[C@@H](CCCNCS(=O)(=O)O)C(=O)N[C@@H](CC(C)C)C(=O)N[C@@H](CCCNCS(=O)(=O)O)C(=O)N[C@@H](CCCNCS(=O)(=O)O)C(=O)N[C@@H](CC(C)C)C(N)=O
Result: < 150 µg/mL

---

# Tested on: E. coli ATCC strain 25922
# test: Minimal Inhibitory Concentration, microtiter broth dilution
# Format: cell-based
# measurement-setup: ATCC strain 25922
For each entry below, report its Minimal Inhibitory Concentration E value.

Request: So what's the measured Minimal Inhibitory Concentration E for this one? H-KIAGKIAKIAGKIAKIAGKIA-OH [(SEQ ID NO: 27)-OH, (Lys Ile Ala Gly Lys Ile Ala)3]
Result: 8 µg/mL

Request: So what's the measured Minimal Inhibitory Concentration E for this one? Ac-KIAGKIAKIAGKIAKIAGKIA-NH2 [Ac-(SEQ ID NO: 27)-NH2]
Result: 8 µg/mL

Request: So what's the measured Minimal Inhibitory Concentration E for this one? H-GIKKFLKKAGKFGKAF-NH2 [(SEQ ID NO: 149)-NH2]
Result: 32 µg/mL

Request: So what's the measured Minimal Inhibitory Concentration E for this one? H-LLKKLKKLLKKL-NH2 [(SEQ ID NO: 113)-NH2]
Result: 32 µg/mL

Request: So what's the measured Minimal Inhibitory Concentration E for this one? Ac-LKKLLKKLKKL-NH2 [Ac-(SEQ ID NO: 110)-NH2]
Result: 32,64 μg/ml

Request: So what's the measured Minimal Inhibitory Concentration E for this one? Ac-LLKKLKKLLKKL-NH2 [Ac-(SEQ ID NO: 113)-NH2]
Result: 64 µg/mL

Request: So what's the measured Minimal Inhibitory Concentration E for this one? H-KIAGKIAKIAGKIAKIAGKIA-NH2 [(SEQ ID NO: 27)-NH2, (Lys Ile Ala Gly Lys Ile Ala)3]
Result: 8 µg/mL
